target: hCRTH2 receptor (Homo sapiens, UniProt Q9Y5Y4); construct: expressed in transfected cells; host or cells: HEK293; test: Radioligand displacement assay (3H-PGD2) on hCRTH2 receptor membranes; assay type: binding; conditions: antagonistic activity; 3H-PGD2 displacement on HEK293-hCRTH2 membrane fragments
Sequence (Q9Y5Y4 whole entry, the tested form may be a part): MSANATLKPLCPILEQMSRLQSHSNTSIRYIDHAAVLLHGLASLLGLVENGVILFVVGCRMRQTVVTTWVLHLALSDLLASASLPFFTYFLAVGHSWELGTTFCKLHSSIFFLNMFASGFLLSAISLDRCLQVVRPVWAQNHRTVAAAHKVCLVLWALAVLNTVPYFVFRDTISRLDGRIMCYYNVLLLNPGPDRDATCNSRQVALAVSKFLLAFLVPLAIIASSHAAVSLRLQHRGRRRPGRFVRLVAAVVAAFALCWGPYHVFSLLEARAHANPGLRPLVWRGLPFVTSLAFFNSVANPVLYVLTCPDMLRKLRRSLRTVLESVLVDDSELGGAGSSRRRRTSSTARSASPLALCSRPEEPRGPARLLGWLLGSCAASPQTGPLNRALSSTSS
pIC50: −log10 of the molar value.
readout name: pIC50

Reference set (3 entries):
| molecule | pIC50 |
| --- | --- |
| Cc1cc(COC(=O)N2CCc3ccccc3C2c2cc(Cl)ccc2OCC(=O)O)nn1C (racemic) | 7.92 |
| COc1ccc(OCC(=O)O)c(C2c3ccccc3CCN2C(=O)OCc2ccccc2)c1 (racemic) | 7.08 |
| O=C(O)COc1ccc(F)cc1[C@@H]1c2ccccc2CCN1C(=O)OCc1ccccc1 | 8.54 |

I: O=C(O)COc1ccc(F)cc1C1c2ccccc2CCN1C(=O)/C=C/c1ccccc1F (racemic)
II: O=C(O)COc1ccc(F)cc1C1c2ccccc2CCN1C(=O)CCc1cccc(Cl)c1 (racemic)
III: O=C(O)COc1ccc(-c2ccc(F)cc2)cc1C1c2ccccc2CCN1C(=O)OCc1ccccc1 (racemic)
IV: Cc1ccccc1C1CC1C(=O)N1CCc2ccccc2C1c1cc(Cl)ccc1OCC(=O)O (single isomer, unassigned) [Example 154]
**Query** List items by pIC50 in falling order. Please reply with the labels ordered as requested. Many thanks.
**Result** IV, III, II, I
(IV: 8.32, III: 7.63, II: 7.07, I: 6.08)

----------
molecular target: hCRTH2 receptor (Homo sapiens); construct: expressed in transfected cells; host or cells: HEK293; test: Radioligand displacement assay (3H-PGD2) on hCRTH2 receptor membranes; assay type: binding; conditions: antagonistic activity, 3H-PGD2 radioligand displacement, HEK293-hCRTH2 membranes
pIC50: −log10 of the molar value.
readout name: pIC50

Reference set (2 entries):
| compound | pIC50 |
| --- | --- |
| O=C(O)COc1ccc(Cl)cc1C1c2ccccc2CCN1C(=O)CCCN1CCCC1=O (racemic) [Example 440] | 7.25 |
| O=C(O)COc1ccc(Cl)cc1C1c2ccccc2CN1C(=O)CCc1cccnc1 (racemic) [Example 505] | 6.72 |

1: O=C(O)COc1ccc(Cl)cc1C1c2ccccc2CCN1C(=O)CCN1CCCc2ccccc21 (racemic) [Example 449]
2: O=C(O)COc1ccc(Cl)cc1C1c2ccc(F)cc2CCN1C(=O)CCOc1ccc(F)cc1 (racemic) [Example 438]
**Query** Sort 1 and 2 by pIC50 descending and give the first. Your answer should be the label attached to the chosen record.
**Result** 1
(1: 7.58, 2: 7.04)

----------
molecular target: hCRTH2 receptor (Homo sapiens); construct: expressed in transfected cells; host or cells: HEK293; assay: Radioligand displacement assay (3H-PGD2) on hCRTH2 receptor membranes; type: binding; details: antagonistic activity; 3H-PGD2 displacement on HEK293-hCRTH2 membrane fragments
readout name: IC50 (nM)

Reference set (6 entries):
| compound | IC50, nM |
| --- | --- |
| COc1cccc(COCC(=O)N2CCc3ccccc3C2c2cc(F)ccc2OCC(=O)O)c1 (racemic) | 36.3 |
| Cc1[nH]c2ccccc2c1CCC(=O)N1CCc2ccccc2C1c1cc(Cl)ccc1OCC(=O)O (racemic) | 4.13 |
| CCCCOC(=O)N1CCc2ccccc2C1c1cc(F)ccc1OCC(=O)O (racemic) | 42 |
| O=C(O)COc1cc2c(cc1C1c3ccccc3CCN1C(=O)OCc1ccccc1)OCO2 (racemic) | 227 |
| O=C(O)COc1ccc(Cl)cc1C1c2ccccc2CCN1C(=O)[C@@H]1C[C@H]1c1ccccc1F (mixture of isomers) | 16.4 |
| O=C(O)COc1ccc(F)cc1C1c2ccccc2CCN1C(=O)CCc1c(Cl)cccc1Cl (racemic) | 877 |

A: COc1cccc2c1CCN(C(=O)OCc1ccccc1)C2c1cc(F)ccc1OCC(=O)O (racemic)
B: COCCC(=O)N1CCc2ccccc2C1c1cc(Cl)ccc1OCC(=O)O (racemic)
C: O=C(O)COc1ccc(Cl)cc1C1c2ccccc2CCN1C(=O)OCc1cccc(F)c1F (racemic)
**Query** List items by IC50 in falling order. Please reply with the labels ordered as requested. Many thanks.
**Result** B, A, C
(B: 139 nM, A: 19.7 nM, C: 3.86 nM)

1: O=C(O)COc1ccc(Cl)cc1C1c2ccccc2CCN1C(=O)OCc1ccccc1C(F)(F)F (racemic)
2: Cc1ccc(OCC(=O)O)c(C2c3ccccc3CCN2C(=O)OCc2ccccc2)c1 (racemic)
3: O=C(O)COc1ccc(Cl)cc1C1c2ccccc2CCN1C(=O)CCOc1ccc(Cl)cc1 (racemic)
4: O=C(O)COc1ccc(F)cc1C1c2ccccc2CCN1C(=O)CCCCc1ccccc1 (racemic)
**Query** List items by IC50 in falling order. Please reply with the labels ordered as requested. Many thanks.
**Result** 4, 2, 3, 1
(4: 395 nM, 2: 62.7 nM, 3: 37.9 nM, 1: 5.59 nM)

A: O=C(O)COc1ccc(Cl)cc1C1c2ccccc2CCN1C(=O)Cn1cnc2ccccc21 (racemic)
B: O=C(O)COc1ccc(F)cc1C1c2cc(F)c(F)cc2CCN1C(=O)OCc1ccccc1 (racemic)
**Query** Hello, I am sorting some records. Could you say if A or B has the smaller IC50 value? Your answer should be the label attached to the chosen record.
**Result** B

----------
target: hCRTH2 receptor (Homo sapiens); construct: expressed in transfected cells; host or cells: HEK293; assay: Radioligand displacement assay (3H-PGD2) on hCRTH2 receptor membranes; format: binding; conditions: antagonistic activity, 3H-PGD2 radioligand displacement, HEK293-hCRTH2 membranes
pIC50: −log10 of the molar value.
readout name: pIC50

| compound | pIC50 |
| --- | --- |
| O=C(O)COc1ccc(Cl)cc1C1c2ccccc2CCN1C(=O)NCc1ccccc1F (racemic) | 7.62 |
| O=C(O)COc1ccc(Cl)cc1C1c2ccccc2CN1C(=O)CCn1ncc2cc(F)ccc21 (single isomer, unassigned) [Example 527] | 8.09 |
| Cc1cccc(CCC(=O)N2CCc3ccccc3C2c2cc(Cl)ccc2OCC(=O)O)n1 (racemic) | 6.75 |
| CCn1nc(C)cc1CCOC(=O)N1CCc2cc(F)ccc2[C@H]1c1cc(Cl)ccc1OCC(=O)O | 7.94 |
| O=C(O)COc1ccc(Cl)cc1C1c2ccccc2CCN1C(=O)[C@@H]1C[C@H]1c1cccc(C(F)(F)F)c1 (mixture of isomers) | 7.03 |

P: O=C(O)COc1ccc(Cl)cc1[C@@H]1c2ccc(F)cc2CCN1C(=O)OCc1ccccc1F
Q: O=C(O)COc1ccc(Cl)cc1C1c2ccccc2CN1C(=O)COc1ccc(F)cc1 (racemic)
**Query** Sort P and Q by pIC50 descending and give the first. Your answer should be the label attached to the chosen record.
**Result** P
(P: 8.73, Q: 7.48)

----------
biological target: hCRTH2 receptor (Homo sapiens, UniProt Q9Y5Y4); construct: expressed in transfected cells; host or cells: HEK293; assay: Radioligand displacement assay (3H-PGD2) on hCRTH2 receptor membranes; assay type: binding; conditions: antagonistic activity; 3H-PGD2 displacement on HEK293-hCRTH2 membrane fragments
readout name: IC50 (µM)

| compound | subject of test | IC50 (µM) |
| --- | --- | --- |
| O=C(O)COc1ccc(Cl)cc1C1c2ccc(F)cc2CCN1C(=O)OCc1ccccc1 (racemic) [Example 226] | hCRTH2 receptor (Homo sapiens, UniProt Q9Y5Y4) | 0.00523 |
| O=C(O)COc1ccc(Cl)cc1C1c2ccccc2CCN1C(=O)CC1CC1 (racemic) [Example 68] | hCRTH2 receptor (Homo sapiens, UniProt Q9Y5Y4) | 0.508 |

1: O=C(O)COc1ccc(F)cc1C1c2ccccc2CCN1C(=O)Cc1ccc(-c2ccccc2)cc1 (racemic) [Example 60]
2: O=C(O)COc1ccc(Cl)cc1C1c2ccccc2CCN1C(=O)[C@@H]1C[C@H]1c1ccc(Cl)cc1 (mixture of isomers) [Example 157]
**Query** Hello, I am sorting some records. Could you say if 1 or 2 has the smaller IC50 value? Your answer should be the label attached to the chosen record.
**Result** 2
(2: 0.0453 µM, 1: 0.577 µM)

----------
biological target: hCRTH2 receptor (Homo sapiens, UniProt Q9Y5Y4); construct: expressed in transfected cells; host or cells: HEK293; assay: Radioligand displacement assay (3H-PGD2) on hCRTH2 receptor membranes; format: binding; conditions: antagonistic activity; 3H-PGD2 displacement on HEK293-hCRTH2 membrane fragments
readout name: IC50 (nM)

Reference set (5 entries):
| compound | reported value |
| --- | --- |
| O=C(O)COc1ccc(Cl)cc1C1c2ccccc2CCN1C(=O)Cc1ccccc1Cl (racemic) | 291 |
| N#Cc1ccc(OCC(=O)O)c(C2c3ccccc3CCN2C(=O)OCc2ccccc2)c1 (racemic) | 4.72 |
| COc1cccc(COC(=O)N2CCc3ccccc3C2c2cc(Cl)ccc2OCC(=O)O)c1 (racemic) | 4.02 |
| O=C(O)COc1ccc(F)cc1C1c2ccccc2CCN1C(=O)CCc1nc2ccccc2s1 (racemic) | 794 |
| O=C(O)COc1ccc(F)cc1C1c2ccccc2CCN1C(=O)Cc1ccc2ccccc2c1 (racemic) | 42.2 |

I: O=C(O)COc1ccc(Cl)cc1C1c2ccccc2CCN1C(=O)Cn1cc2ccccc2n1 (racemic)
II: COc1ccccc1CCC(=O)N1CCc2ccccc2C1c1cc(F)ccc1OCC(=O)O (racemic)
**Query** Sort I and II by IC50 descending and give the first. Your answer should be the label attached to the chosen record.
**Result** II
